Quick list: self-cleavage per entry.
B1: OR4K15 (parent)
chain: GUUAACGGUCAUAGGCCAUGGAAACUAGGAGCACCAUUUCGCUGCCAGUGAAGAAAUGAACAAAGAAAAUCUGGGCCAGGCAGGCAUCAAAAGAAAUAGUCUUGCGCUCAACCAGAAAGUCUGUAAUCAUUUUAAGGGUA

# Variants of: B1
# ASSAY_INFO: self-cleavage, relative activity (ratio to wild type); higher = more cleavage; in vitro, sequencing; the parent is a self-cleaving ribozyme
Provide a numeric answer; units are not to be included.

Previously resolved entries follow.
Given the entry GUUAACGGUCAUAGGCCAUGGAAACUAGAAGCACCAUUUCGCUGCCAGUGAAGAAAUGAACAAAGAAAAUCUGGGCCAGGCAGGCAUCAAAAGAAAUAGUCUUGCGCUCAACCAGAAAGUCUGUAAUCAUUUUAAGGGGA [G29A U139G] , report its measured self-cleavage. 0.86

Given the entry GUUAACGGUCAUAGGCCAUGGAAACUAGGAGUACCAUUUCGCUGCCAGUGAAGAAAUGAACAAAGAAAAUCCGGGCCAGGCAGGCAUCAAAAGAAAUAGUCUUGCGCUCAACCAGAAAGUCUGUAAUCAUUUUAAGGGUA [C32U U72C] , report its measured self-cleavage. 0.2

Given the entry GUUAACGGUCAUAGGCCAUGGAAACUAGGACCACCAUUUCGCUGCCAGUGAAGAAAUGAACAAAGAAAAUCUGGGCCAGGCAGGCAUCAAAAGAAAUAGUCUUGCGCUCAACCAGAAAGUCUGUAAUCAUUUCAAGGGUA [G31C U133C] , report its measured self-cleavage. 1.95

Given the entry GUUAACGGUCAUAGGCCAUGGAAACUAGGAGCACCAAUUCGCUGCCAGUGAAGAAAUGAACAAAGAAAAUCUGGGCCAGGCAGGCAUCAGAAGAAAUAGUCUUGCGCUCAACCAGAAAGUCUGUAAUCAUUUUAAGGGUA [U37A A90G] , report its measured self-cleavage. 0.73

Given the entry GUUAACGGUCAUAGGCCAUGGAAACUAGGAGCACCAUUUCGCUGCCAGUGAAGAAAUGAAUAAUGAAAAUCUGGGCCAGGCAGGCAUCAAAAGAAAUAGUCUUGCGCUCAACCAGAAAGUCUGUAAUCAUUUUAAGGGUA [C61U A64U] , report its measured self-cleavage. 0.27

More entries:
Given the entry GUUAACGGUCAUAGGCCAUGGAAACUAGGAGCACCAUUUCGCUGCCAGUGAAGAAACGAACAAAGAAAAUCUGGGCCAGGCAGGCAUCAAAAGAAAUAGCCUUGCGCUCAACCAGAAAGUCUGUAAUCAUUUUAAGGGUA [U57C U100C] , report its measured self-cleavage. 1.83

Given the entry GUUAACGGUCGUAGGCCAUGGAAACUAGGAGCACCAUUUCGCUGCCAGUGAAGAAAUGAACAAAGGAAAUCUGGGCCAGGCAGGCAUCAAAAGAAAUAGUCUUGCGCUCAACCAGAAAGUCUGUAAUCAUUUUAAGGGUA [A11G A66G] , report its measured self-cleavage. 0.88

Given the entry GUUAGCGGUCAUAGGCCAUGGAAACUAGGAGCACCAUUUCGCUGCCAGUGAAGAAAUGAACAAAGAAAAUCUGGGCCAGGCAGGCAUCAAAAGAAAUAGUCUUGCGCUCAACCAGAAAUUCUGUAAUCAUUUUAAGGGUA [A5G G119U] , report its measured self-cleavage. 1.44

Given the entry GUUAUCGGUCAUAGGCCAUGGAAACUAGGAGCACCAUUUCGCCGCCAGUGAAGAAAUGAACAAAGAAAAUCUGGGCCAGGCAGGCAUCAAAAGAAAUAGUCUUGCGCUCAACCAGAAAGUCUGUAAUCAUUUUAAGGGUA [A5U U43C] , report its measured self-cleavage. 1.2

Given the entry GUUAACGGUCAUAGGCCAUGGAAACUAGGAGCACCAUUUCGCUGCCAGUGAAGAAAUGAACAAAGAAAAUCUGGGCCAGGCAGGCAUCAAAAGAAAUAGUCUUGCGCUCAACCAGAAAGUCUGUAACCAUUUUAAGGGUA [U127C] , report its measured self-cleavage. 0.68

Given the entry GUUAAUGGUCAUAGGCCAUUGAAACUAGGAGCACCAUUUCGCUGCCAGUGAAGAAAUGAACAAAGAAAAUCUGGGCCAGGCAGGCAUCAAAAGAAAUAGUCUUGCGCUCAACCAGAAAGUCUGUAAUCAUUUUAAGGGUA [C6U G20U] , report its measured self-cleavage. 1.06

Given the entry GUUAACGGUCAUAGGCCGUGGAAACUAGGAGCACCAUUUCGCUGCCAGUGAAGAAAUGAACAAAGAAAAUCUGGGCCAGGCAGGCAUCAAAAGAAAUAGUCUUGCGCUCAACCAGAACGUCUGUAAUCAUUUUAAGGGUA [A18G A118C] , report its measured self-cleavage. 0.27

Given the entry GUUAACGGUCAUAGGCCAUGGAAACUAGGAGCACCAUUUCGCUGCCAGUGAAGAAAUGAACAAAGAAAAUCUGGGCCAGGCAGGCGUCAAAAGAAAUAGUCUUGCGCUCAACCAGAAAGUCUGUAAUCUUUUUAAGGGUA [A86G A129U] , report its measured self-cleavage. 0.57

Given the entry GUUAACAGUCAUAGGCCAUGGAAACUAGGAGCACCAUUUCGCUGCCAGUGAAGAAAUGAACAAAGAAAAACUGGGCCAGGCAGGCAUCAAAAGAAAUAGUCUUGCGCUCAACCAGAAAGUCUGUAAUCAUUUUAAGGGUA [G7A U70A] , report its measured self-cleavage. 1.94

Given the entry GUUAACGGUCAUAGGCCAUGGAGACUAGGAGCACCAUUUCGCUGCCAGUGAAGAAAUGAACAAAGAAAAUCUGGGCCAGGCAGGCAUCAAAAGCAAUAGUCUUGCGCUCAACCAGAAAGUCUGUAAUCAUUUUAAGGGUA [A23G A94C] , report its measured self-cleavage. 1.14
